# Tested on: HBsAg
# assay explanation: HBsAg assay: inhibition of HBsAg in HepG2.2.15 cells (CLIA immunoassay of supernatant)
# Format: cell-based, hepatitis B virus (HBV)
# condition details: Hepatitis B virus, HepG2.2.15, 144 h, read-out: sAg EC50, HepG2.2.15 cells; supernatant collected at day 6 after exposure; HBsAg chemiluminescence immunoassay
recorded endpoint: EC50 (nM)
The answer is to be given in nM; state only the numeric part.

[[record]]
compound = "COCCCOc1cc2c(cc1OC)-c1[nH]c(=O)c(C(=O)O)c(OC)c1C(C(C)C)C2 (centres unmarked) [Example 87]"
experimental_system = "HBsAg"
reported_result = 85

[[record]]
compound = "COCCCOc1cc2c(nc1Cl)-c1c(cc(C(=O)O)c(=O)n1C)C(C(C)C)C2 (centres unmarked) [Example 25]"
experimental_system = "HBsAg"
reported_result = 94

[[record]]
compound = "COCCCOc1cc2c(cc1OC)-c1nc(OC)c(C(=O)O)cc1C(C(C)C)C2 (centres unmarked) [Example 12]"
experimental_system = "HBsAg"
reported_result = 1200

[[record]]
compound = "COCCCOc1cc2c(cc1OC)-c1nc(Cl)c(C(=O)O)c(Cl)c1C(C(C)C)C2 (centres unmarked) [Example 21]"
experimental_system = "HBsAg"
reported_result = 150


Now consider a different compound.
Reading of EC50 for COCCCOc1cc2c(cc1Cl)-c1[nH]c(=O)c(C(=O)O)c(O)c1C(C)(C(C)C)C2 (centres unmarked) [Example 14] with HBsAg: 62
